- System: recombinant NL4-3 virus (nef section replaced with Renilla luciferase gene) in MT-2 cells
- Method Description: HIV cell culture assay (antiviral activity, luciferase readout)
- Type: cell-based
- Test Parameters: Renilla, NL43, MT-2 cells infected for 4-5 days with recombinant NL4-3 Renilla luciferase virus, serial dilutions of compound
Measure: EC50 (nM)

- COc1cccc(OC)c1-c1ccc2c(=O)n(-c3ccc(S(=O)(=O)N4CCOCC4)cc3)c([C@H](Cc3cc(F)cc(F)c3)NC(=O)Cn3nc(C(F)F)c4c3C(F)(F)[C@@H]3C[C@H]43)nc2c1: 5
- O=C(Cn1ccc(C2CC2)n1)N[C@@H](Cc1cc(F)cc(F)c1)c1nc2cc(-c3ccc(Cl)cc3Cl)ccc2c(=O)n1-c1ccc(S(=O)(=O)N2CCOCC2)cc1: 56
- Cc1cc(C)nc(-c2ccc3c(=O)n(-c4ccc(Cl)c5c(NS(=O)(=O)C6CC6)nn(CC(F)F)c45)c([C@H](Cc4cc(F)cc(F)c4)NC(=O)Cn4nc(C(F)F)c5c4C(F)(F)[C@@H]4C[C@H]54)nc3c2)n1 (atropisomer, axis not shown; (aR)): 0.095
- Cn1nc(NS(C)(=O)=O)c2c(Cl)ccc(-n3c([C@H](Cc4cc(F)cc(F)c4)NC(=O)Cn4nc(C(F)F)c5c4C(F)(F)[C@@H]4C[C@H]54)nc4cc(-c5cccc(C(C)(C)C)c5)ccc4c3=O)c21 (atropisomer, axis not shown; (aR)): 4.5

----------
- Test system: recombinant NL4-3 virus (nef section replaced with Renilla luciferase gene) in MT-2 cells
- Method Description: HIV cell culture assay (antiviral activity, luciferase readout)
- Format: cell-based
- Test Parameters: Renilla, NL43, MT-2 cells infected for 4-5 days with recombinant NL4-3 Renilla luciferase virus, serial dilutions of compound
pEC50: −log10 of the molar value.
Measure: pEC50

- Cc1cc(-c2ccc3c(=O)n(-c4ccc(Cl)c5c(NS(C)(=O)=O)nn(C)c45)c([C@H](Cc4cc(F)cc(F)c4)NC(=O)Cn4nc(C(F)F)c5c4C(F)(F)[C@@H]4C[C@H]54)nc3c2)ccc1Cl (atropisomer, axis not shown; (aR)): 8.33
- Cn1nc(NS(C)(=O)=O)c2c(Cl)ccc(-n3c([C@H](Cc4cc(F)cc(F)c4)NC(=O)Cn4nc(C(F)F)c5c4C(F)(F)[C@@H]4C[C@H]54)nc4cc(-c5cccnc5)ccc4c3=O)c21 (atropisomer, axis not shown; (aR)): 9.74
- O=C(Cn1nc(C(F)F)c2c1C(F)(F)[C@@H]1C[C@H]21)N[C@@H](Cc1cc(F)cc(F)c1)c1nc2cc(-c3ccccc3F)ccc2c(=O)n1-c1ccc(Cl)c2c(NS(=O)(=O)C3CC3)nn(CC(F)F)c12 (atropisomer, axis not shown; (aR)): 9.33
- O=C(Cn1ccc(C2CC2)n1)N[C@@H](Cc1cc(F)cc(F)c1)c1nc2cc(-c3ccc(-c4ccccc4)cc3)ccc2c(=O)n1-c1ccc(S(=O)(=O)N2CCOCC2)cc1: 7.15
- Cn1nc(NS(C)(=O)=O)c2c(Cl)ccc(-n3c([C@H](Cc4cc(F)cc(F)c4)NC(=O)Cn4nc(C(F)F)c5c4C(F)(F)[C@@H]4C[C@H]54)nc4cc(-c5ccc6c7c(ccnc57)CCO6)ccc4c3=O)c21 (atropisomer, axis not shown; (aR)): 8.15
- Cc1ncc(-c2ccc3c(=O)n(-c4ccc(Cl)c5c(NS(C)(=O)=O)nn(CC(F)(F)F)c45)c([C@H](Cc4cc(F)cc(F)c4)NC(=O)Cn4nc(C(F)F)c5c4C(F)(F)[C@@H]4C[C@H]54)nc3c2)cn1: 10.43
- Cc1cccc(C)c1-c1ccc2c(=O)n(-c3ccc(Cl)c4c(NS(C)(=O)=O)nn(C)c34)c([C@H](Cc3cc(F)cc(F)c3)NC(=O)Cn3nc(C(F)F)c4c3C(F)(F)[C@@H]3C[C@H]43)nc2c1 (atropisomer, axis not shown; (aR)): 9.14
- O=C(Cn1nc(C(F)F)c2c1C(F)(F)[C@H]1C[C@@H]21)N[C@@H](Cc1cc(F)cc(F)c1)c1nc2cc(-c3ncccn3)ccc2c(=O)n1-c1ccc(S(=O)(=O)N2CCOCC2)cc1: 8.24
- Cc1cccc(C)c1-c1ccc2c(=O)n(-c3ccc(S(=O)(=O)N4CCOCC4)cc3)c([C@H](Cc3cc(F)cc(F)c3)NC(=O)Cn3nc(C(F)F)c4c3C(F)(F)[C@@H]3C[C@H]43)nc2c1: 8.38
- CS(=O)(=O)Nc1nn(CC(F)F)c2c(-n3c([C@H](Cc4cc(F)cc(F)c4)NC(=O)Cn4nc(C(F)F)c5c4C(F)(F)[C@@H]4C[C@H]54)nc4cc(-c5ccccc5S(C)(=O)=O)ccc4c3=O)ccc(Cl)c12: 10.18
- Cn1nc(NS(C)(=O)=O)c2c(Cl)ccc(-n3c([C@H](Cc4cc(F)cc(F)c4)NC(=O)Cn4nc(C(F)F)c5c4C(F)(F)[C@@H]4C[C@H]54)nc4cc(-c5ccc(C(C)(C)O)cc5)ccc4c3=O)c21 (atropisomer, axis not shown; (aR)): 9.47
- CC(C)S(=O)(=O)c1ccccc1-c1ccc2c(=O)n(-c3ccc(Cl)c4c(NS(C)(=O)=O)nn(C)c34)c([C@H](Cc3cc(F)cc(F)c3)NC(=O)Cn3nc(C(F)F)c4c3C(F)(F)[C@@H]3C[C@H]43)nc2c1 (atropisomer, axis not shown; (aR)): 9.89
- Cn1nc(NS(C)(=O)=O)c2c(Cl)ccc(-n3c([C@H](Cc4cc(F)cc(F)c4)NC(=O)Cn4nc(C(F)F)c5c4C(F)(F)[C@@H]4C[C@H]54)nc4cc(-c5c(Cl)cccc5Cl)ccc4c3=O)c21 (atropisomer, axis not shown; (aR)): 9.17
- Cn1nc(NS(C)(=O)=O)c2c(Cl)ccc(-n3c([C@H](Cc4cc(F)cc(F)c4)NC(=O)Cn4nc(C(F)F)c5c4C(F)(F)[C@@H]4C[C@H]54)nc4cc(-c5cc(F)cc(F)c5)ccc4c3=O)c21 (atropisomer, axis not shown; (aR)): 9.06
- O=C(Cn1nc(C(F)F)c2c1C(F)(F)[C@@H]1C[C@H]21)N[C@@H](Cc1cc(F)cc(F)c1)c1nc2cc(-c3cccc(F)c3F)ccc2c(=O)n1-c1ccc(S(=O)(=O)N2CCOCC2)cc1: 8.09
- Cc1cc(C)nc(-c2ccc3c(=O)n(-c4ccc(Cl)c5c(NS(C)(=O)=O)nn(C)c45)c([C@H](Cc4cc(F)cc(F)c4)NC(=O)Cn4nc(C(F)(F)F)c5c4C(F)(F)[C@@H]4C[C@H]54)nc3c2)n1: 9.96

Where do the numbers come from? From patent US11505543B2.
